experiment: Caspase-3/7 induction in CHO-K1 cells by small molecules, qHTS cell viability counter screen (AID 1346979); conditions: CellTiter-Fluor fluorescence, 17 h; series mostly up to 92.4 µM; note: nearly all actives have a fitted effect of over 35% in size
Records with an inconclusive call do not appear. Activity calls are given as the source filed them. Calls come from the whole dose curve; as a rule, active = well fitted cell-killing curve with a large enough effect in the repeat runs; inconclusive = weak or mixed curves, or effect the other way; inactive = no such curve, though single readings can be large or run the other way.
Respond using exactly one of the listed classes: Y for active, N for inactive

Lookup: Returns: the outcome recorded for `C[Si](C)O[Si](C)(C)O[Si](C)(C)O[Si](C)C` in this assay.
Found: N

Lookup: `CCOC(=O)[C@H](CCc1ccccc1)N[C@H]1CCc2ccccc2N(CC(=O)O)C1=O` , same question.
Found: Y

Lookup: Next up: C1CCC2OC2C1 (configuration not stated)
Found: N

Lookup: Same thing, different compound: `CC[C@]12CCCN3CCc4c(n(c5ccccc45)C(=O)C1)[C@@H]32`
Found: Y

Lookup: Same question for `CCCCC(CC)(CO)CO` please.
Found: N

Lookup: Now the compound `CCCCCCCCCC=O`
Found: N

Lookup: Similarly, `CCCCCCCCN(C)C` ?
Found: N

###

target: Androgen receptor (Homo sapiens) (UniProt P10275); assay: qHTS assay to identify small molecule agonists of the androgen receptor (AR) signaling pathway in the presence of an antagonist (AID 1259381); conditions: MDA-kb2 MMTV-luciferase, AR agonist + nilutamide, 16 h; series mostly up to 92.4 µM; note: nearly all actives have a fitted effect of over 15% in size
Sequence (P10275 whole entry, looked up): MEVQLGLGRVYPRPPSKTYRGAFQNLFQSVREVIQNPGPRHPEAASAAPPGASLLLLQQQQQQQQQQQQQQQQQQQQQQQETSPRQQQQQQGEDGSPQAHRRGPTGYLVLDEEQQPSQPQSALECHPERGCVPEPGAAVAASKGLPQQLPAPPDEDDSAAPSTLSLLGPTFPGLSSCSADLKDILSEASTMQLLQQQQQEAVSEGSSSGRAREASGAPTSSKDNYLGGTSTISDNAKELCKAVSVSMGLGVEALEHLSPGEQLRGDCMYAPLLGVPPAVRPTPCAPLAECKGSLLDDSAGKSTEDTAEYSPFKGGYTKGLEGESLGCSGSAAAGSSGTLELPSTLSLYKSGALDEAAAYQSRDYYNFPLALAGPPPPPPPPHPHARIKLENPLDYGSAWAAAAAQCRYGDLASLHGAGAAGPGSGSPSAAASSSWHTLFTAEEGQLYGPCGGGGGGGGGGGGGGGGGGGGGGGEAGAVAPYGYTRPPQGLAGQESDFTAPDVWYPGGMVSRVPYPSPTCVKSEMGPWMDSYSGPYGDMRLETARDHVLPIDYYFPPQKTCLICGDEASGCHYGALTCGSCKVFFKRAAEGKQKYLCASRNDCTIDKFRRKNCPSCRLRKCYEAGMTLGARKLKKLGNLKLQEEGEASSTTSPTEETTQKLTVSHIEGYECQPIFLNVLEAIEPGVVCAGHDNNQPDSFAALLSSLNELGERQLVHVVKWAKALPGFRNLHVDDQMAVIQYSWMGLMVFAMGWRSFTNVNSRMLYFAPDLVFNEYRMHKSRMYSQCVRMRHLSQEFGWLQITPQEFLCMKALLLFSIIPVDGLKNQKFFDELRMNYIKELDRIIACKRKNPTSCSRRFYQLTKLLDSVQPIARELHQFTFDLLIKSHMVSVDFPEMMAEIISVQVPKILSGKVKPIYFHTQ
Activity calls are given as the source filed them. The call rests on the fitted dose curve.
Pick one and only one: Yes for active, No for inactive

Sample answers from the record:
O=C(O)[C@@H]1[C@H]2C[C@H]3c4[nH]c5ccccc5c4CCN3C[C@@H]2CC[C@@H]1O = No
O=C(c1ccc(O)cc1)c1ccc(O)cc1 = No
CCC(C)N(C)C(=O)c1cc2ccccc2c(-c2ccccc2Cl)n1 (configuration not stated) = No
CC(C)CCCC(C)CCO (configuration not stated) = No
CC(C)(Oc1ccc(Cl)cc1)C(=O)OCCCOC(=O)C(C)(C)Oc1ccc(Cl)cc1 = No

Attention now turns to another entry.
Lookup: # lookup: test call for `CCOc1nc2cccc(C(=O)O)c2n1Cc1ccc(-c2ccccc2-c2nn[nH]n2)cc1`
Found: No

###

test: qHTS assay to identify small molecule HDAC inhibitors (AID 1259364); settings: HCT-116 HDAC-Glo I/II luminescence, 2 h; series mostly up to 92.4 µM;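 note: wild-type HCT-116 cells with endogenous class I/II HDAC activity; top concentration of the series differs between compounds; nearly all actives have a fitted effect of over 45% in size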
Results filed as inconclusive are left out. Calls of active or inactive are those of the source. The call rests on the fitted dose curve; in most records, active means well fitted inhibition curve with a large enough effect in the repeat runs; inconclusive means weak or mixed curves; inactive means flat fitted curve, though single readings scatter.
Allowed answers: active, inactive

A selection of reference data follows.
NCc1ccccc1 = inactive
CC/C(=C\C(=N/O)C(N)=O)C(C)[N+](=O)[O-] (stereo not drawn) = inactive
CC(C)CC=O = inactive
COc1ccccc1OC(=O)Oc1ccccc1OC = inactive
CCCC(=O)OCC = inactive

Lookup: Given CCCCC(CC)COCCCN (stereo not drawn) , state the outcome it received in this test.
Found: inactive

Lookup: Then what about the molecule `CC(C)(C)C(=O)OCOP(=O)(COCCn1cnc2c(N)ncnc21)OCOC(=O)C(C)(C)C` ?
Found: inactive

###

assay: qHTS assay to identify aromatase inhibitors - cell viability counter screen (AID 743084); settings: MCF-7 aro ERE viability, CellTiter-Fluor, 24 h; series mostly up to 70.3 µM;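 note: cells stimulated with testosterone during compound exposure; nearly all actives have a fitted effect of over 55% in size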
Inconclusive results are not listed. The source made the active and inactive calls. Calls follow the shape of the dose curve; as a rule, active = well fitted cell-killing curve with a large enough effect in the repeat runs; inconclusive = weak or mixed curves, or effect the other way; inactive = no such curve, though single readings can be large or run the other way.
Form entry, call: pick from yes = active, no = inactive

COC(=O)C(C)=O = no
CCCCCCCCCC=O = no
CN1CCC(OC(c2ccccc2)c2ccccc2)CC1 = no

Lookup: What did the test return for `N#Cc1cc2ccccc2c2ccccc12` ?
Found: no

Lookup: One more compound: `Cc1cc(O)ccc1N`
Found: yes

Lookup: Then `CCOC(=O)C1=NN(c2ccccc2)C(=O)C1` ?
Found: no

Lookup: Also `CC(C)(C)c1cc(CCC(=O)OCC(COC(=O)CCc2cc(C(C)(C)C)c(O)c(C(C)(C)C)c2)(COC(=O)CCc2cc(C(C)(C)C)c(O)c(C(C)(C)C)c2)COC(=O)CCc2cc(C(C)(C)C)c(O)c(C(C)(C)C)c2)cc(C(C)(C)C)c1O` , if possible.
Found: no

Lookup: Next entry: `CC1(C)[C@H]2CC[C@]1(C)[C@H](O)C2`
Found: no

Lookup: Next up: `O=C(c1ccc(O)cc1)c1ccc(O)cc1`
Found: no

Lookup: Let us now turn to `CC(C)(C)C(=O)OCOP(=O)(COCCn1cnc2c(N)ncnc21)OCOC(=O)C(C)(C)C`
Found: no

Lookup: And then Cn1c(=O)c2c(ncn2CC(O)CO)n(C)c1=O (configuration not stated) , what is it?
Found: no

Lookup: Subsequent entry: `O=C(Cl)c1c(Cl)cccc1Cl`
Found: no

Lookup: Please give the result for `CC(=O)Nc1ccc(/C=N/NC(N)=S)cc1` too.
Found: no

###

assay: qHTS assay to identify small molecule agonists of the androgen receptor (AR) signaling pathway in the presence of an antagonist - cell viability counter screen (AID 1259379); details: MDA-kb2 viability, CellTiter-Fluor, 16 h; series mostly up to 92.4 µM;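 note: MDA-kb2 human breast cancer cells carrying an MMTV luciferase reporter; nearly all actives have a fitted effect of over 25% in size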
Records with an inconclusive call do not appear. Calls of active or inactive are those of the source. Calls come from the whole dose curve; as a rule, active = well fitted cell-killing curve with a large enough effect in the repeat runs; inconclusive = weak or mixed curves, or effect the other way; inactive = flat fitted curve, though single readings scatter.
Could you please pick one outcome from this set? active, inactive

# count of solved cases: 2
O=C(O)COC(=O)Cc1ccccc1Nc1c(Cl)cccc1Cl = inactive
CC(CN)CCCN (stereo not drawn) = inactive

Lookup: Look up the recorded call for `N#CCc1cccc(C(F)(F)F)c1` in this test.
Found: inactive

###

target: Thyrotropin receptor (Homo sapiens); experiment: qHTS assay to identify small molecule antagonists of the thyroid stimulating hormone receptor (TSHR) signaling pathway (AID 1259385); details: TSHR-HEK293 cAMP HTRF, TSH-stimulated antagonist mode; series mostly up to 92.4 µM; note: nearly all actives have a fitted effect of over 20% in size
Records with an inconclusive call do not appear. Activity calls are given as the source filed them. Calls come from the whole dose curve.
Can you answer with just one of these options? t for active, f for inactive

O=S1(=O)N=C(O)c2ccccc21 = f

Lookup: What did this assay record as the result for CC(Cc1cccc(C(F)(F)F)c1)NCCOC(=O)c1ccccc1 (stereo not given) ?
Found: f

Lookup: What about `Cc1cc(C)c(S(=O)(=O)O)cc1N=Nc1cc(S(=O)(=O)O)c2ccccc2c1O` ?
Found: f

Lookup: Also, CC(C)NCC(O)c1cc(O)cc(O)c1 (stereo not given) please.
Found: f

Lookup: Consider next the compound `O=C(O)c1cccc(N(Cc2cccnc2)c2ccc(OC(F)F)c(OC(F)F)c2)c1` in the same way.
Found: f

Lookup: And the next one, `CCOc1nc2cccc(C(=O)O)c2n1Cc1ccc(-c2ccccc2-c2nn[nH]n2)cc1` ?
Found: f

Lookup: Continue with `Cn1sccc1=O`
Found: f

###

molecular target: Nuclear receptor subfamily 1 group I member 2 (Homo sapiens) (UniProt O75469); assay: CYP3A4 induction through human pregnane X receptor (PXR) by small molecules, qHTS assay (AID 1346984); settings: DPX-2 HepG2 PXR, CYP3A4-luciferin luminescence, 24 h; series mostly up to 46.1 µM; note: nearly all actives have a fitted effect of over 40% in size; note: potency is the fitted concentration of half-maximal effect
Records with an inconclusive call do not appear. Activity calls are given as the source filed them. The call rests on the fitted dose curve; in most records, active means well fitted activation curve with a large enough effect in the repeat runs; inconclusive means weak or mixed curves; inactive means no such curve, though single readings can be large or run the other way.
measuredMetric: Potency

CCOC(=S)SSC(=S)OCC = inactive
Nc1ccc(C(=O)Nc2ccccc2N)cc1 = inactive
C=Cc1c(C)c2cc3[nH]c(cc4nc(cc5nc(cc1[nH]2)C(C)=C5CCC(=O)O)C(CCC(=O)O)=C4C)c(C)c3C=C = inactive
O=C(Nc1ccccc1)OCC(CN1CCCCC1)OC(=O)Nc1ccccc1 (configuration not stated) = 10 µM (active)
NC(=S)N/N=C/c1cccnc1 = inactive

Lookup: Param readout = Potency; param system = Nuclear receptor subfamily 1 group I member 2 (Homo sapiens) (UniProt O75469); param query = CC(C(=O)O)c1ccc(-c2ccccc2)c(F)c1 (configuration not stated) ; response: value
Found: inactive

Lookup: Proceed to `NC[C@H]1O[C@H](O[C@H]2[C@H](O)[C@@H](O[C@H]3O[C@H](CO)[C@@H](O)[C@H](N)[C@H]3O)[C@H](N)C[C@@H]2N)[C@H](O)[C@@H](O)[C@@H]1O`
Found: inactive

Lookup: And then `CC[C@H](C)[C@H](N)C(=O)O` , what is it?
Found: inactive

Lookup: What about `CC(=O)Nc1ccc(/C=N/NC(N)=S)cc1` ?
Found: inactive

Lookup: Also, `Cc1cc(CC(=O)O)c(C)n1-c1ccc(Cl)cc1` please.
Found: inactive

###

Target: Estrogen receptor (Homo sapiens) (UniProt P03372)
Sequence (P03372 whole entry, looked up): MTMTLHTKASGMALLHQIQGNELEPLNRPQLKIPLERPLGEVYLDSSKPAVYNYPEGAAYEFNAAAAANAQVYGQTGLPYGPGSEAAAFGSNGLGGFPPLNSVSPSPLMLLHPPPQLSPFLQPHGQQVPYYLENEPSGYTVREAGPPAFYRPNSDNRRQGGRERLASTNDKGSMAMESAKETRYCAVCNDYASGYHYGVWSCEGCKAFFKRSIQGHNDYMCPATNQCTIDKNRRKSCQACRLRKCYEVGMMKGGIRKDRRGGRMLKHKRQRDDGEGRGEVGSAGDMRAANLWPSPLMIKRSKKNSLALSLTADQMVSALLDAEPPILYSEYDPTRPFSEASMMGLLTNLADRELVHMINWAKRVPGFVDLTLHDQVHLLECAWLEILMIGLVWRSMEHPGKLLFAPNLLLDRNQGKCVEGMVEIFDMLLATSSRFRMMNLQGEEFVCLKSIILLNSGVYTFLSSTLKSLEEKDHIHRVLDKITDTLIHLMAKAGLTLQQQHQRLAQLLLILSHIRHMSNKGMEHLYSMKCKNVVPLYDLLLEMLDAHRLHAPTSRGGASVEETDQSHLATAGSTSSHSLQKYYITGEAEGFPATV
Assay: qHTS assay to identify small molecule antagonists of the estrogen receptor alpha (ER-alpha) signaling pathway (AID 743069)
Details: HEK293 ER-alpha-UAS-bla, beta-lactamase ratio, antagonist mode; series mostly up to 69.4 µM
Excerpt: National Center for Advancing Translational Sciences [NCATS] NIH Chemical Genomics Center [NCGC] U.S. Environmental Protection Agency [EPA] National Institutes of Environmental Health Sciences [NIEHS] National Toxicology Program [NTP] U.S. Food and Drug Administration [FDA] Estrogen receptor (ER), a nuclear hormone receptor, plays an important role in development, metabolic homeostasis and reproduction. […]
Results filed as inconclusive are left out. The source made the active and inactive calls. Calls follow the shape of the dose curve; as a rule, active = well fitted curve in the direction sought with a large enough effect in the signal ratio in the repeat runs (not every such curve was filed as active); inconclusive = weak or mixed curves, or effect the other way; inactive = no such curve, though single readings can be large or run the other way; the % refers to the signal ratio.
measuredMetric: outcome

# example entries with known answers
CCOC(=O)C1=C(C)NC(C)=C(C(=O)OC)C1c1cccc([N+](=O)[O-])c1 (stereo not given) = inactive
CCN1CCC[C@H]1CNC(=O)c1c(OC)ccc(Br)c1OC = inactive
CCOC(=S)SSC(=S)OCC = inactive
CCCCOc1cc(C(=O)OCCN(CC)CC)ccc1N = inactive

Lookup: Which measured outcome value corresponds to CC(C)CCCC(C)CCO (stereo not given) ?
Found: inactive

Lookup: One more compound: `CCOC(=O)CC(=O)c1cc(F)c(Cl)nc1Cl`
Found: inactive

Lookup: Queued: `CC(C)CC=O`
Found: inactive

Lookup: Same question, `Nc1nc(N)c2nc(CNc3ccc(C(=O)N[C@@H](CCC(=O)O)C(=O)O)cc3)cnc2n1` this time
Found: inactive

Lookup: Another compound to look at: `CCCCOCCOCCOCCOCCO`
Found: inactive

Lookup: Follow-up entry: `CCCCCCCCCO`
Found: inactive

Lookup: And for `Cc1ncsc1CCO` ?
Found: inactive

Lookup: What do you get for CCCCCCCCC(CO)CCCCCC (stereo not given) ?
Found: inactive
